Just for reference, patent US11753408B2 is where these values come from.

- PROTOCOL_TEXT: Microsomal stability (rat)
- Format: in vitro ADME
- SETTINGS: rat microsomes
Recorded Microsomal Stability (rat) T1/2 by entry
Please state the figure in min; there is no need to write the unit.

Illustrative cases are given below, each with its answer.
- O=C(c1ccc(-n2c(=O)ccc3cnc4ccc(-c5cccc(Cl)c5)cc4c32)cc1)N1CCOCC1: 5.4
- O=C(NCCCN1CCCC1)c1ccc(-n2c(=O)ccc3cnc4ccc(-c5ccc(Cl)cc5)cc4c32)cc1: 7.1
- CC(C)c1ccc(-c2ccc3ncc4ccc(=O)n(-c5ccc(C(=O)N6CCOCC6)cc5)c4c3c2)cc1: 12.6
- COc1cc(C(=O)NCCN2CCCCC2)ccc1-n1c(=O)ccc2cnc3ccc(-c4ccc(Cl)cc4)cc3c21: 3.5
- CCN(CC)CCCNC(=O)c1ccc(-n2c(=O)ccc3cnc4ccc(-c5ccc(Cl)cc5)cc4c32)c(C)c1: 3

Now take the following compound into account.
# get_value(readout='Microsomal Stability (rat) T1/2', item= `Cc1cc(C(=O)NCCN2CCCC2)ccc1-n1c(=O)ccc2cnc3ccc(-c4ccc(Cl)cc4)cc3c21` ) 10.6

----------
- TGT: mTOR (Homo sapiens, UniProt P42345)
- PROTOCOL_TEXT: mTOR activity (no method described)
- Assay type: biochemical
Reported log10 of mTOR values are given for each entry in this list.
Note the log scale: values are log10 of mTOR expressed in nM.

Observe how each entry below is paired with its result.
- CC(C)(N)c1ccc(-c2ccc3ncc4ccc(=O)n(-c5ccc(C(=O)N6CCOCC6)cc5)c4c3c2)cc1: 2.86
- Cc1ccc(C#N)cc1-n1c(=O)n(C)c2cnc3ccc(-c4cccc(C#N)c4)cc3c21: 5.00
- O=C(NC1CC1)c1ccc(-n2c(=O)ccc3cnc4ccc(-c5ccc(Cl)cc5)cc4c32)cc1: 2.38
- O=C(NCCN1CCOCC1)c1ccc(-n2c(=O)ccc3cnc4ccc(-c5ccc(Cl)cc5)cc4c32)cc1: 2.88
- O=C(NC1CCCC1)c1ccc(-n2c(=O)ccc3cnc4ccc(-c5ccc(Cl)cc5)cc4c32)cc1: 4.83

Please give the measured log10 of mTOR for this compound: `Cc1cc(C(=O)NC2CC2)ccc1-n1c(=O)ccc2cnc3ccc(-c4ccc(Cl)cc4)cc3c21` 3.27

I am curious: what log10 of mTOR value has been reported for `O=C(c1ccc(-n2c(=O)ccc3cnc4ccc(-c5ccc(CN6CCOCC6)cc5)cc4c32)cc1)N1CCOCC1` ? 4.70

Given the compound `O=C(c1ccc(-n2c(=O)ccc3cnc4ccc(-c5ccccc5)cc4c32)cc1)N1CCOCC1` , what is its reported log10 of mTOR? 2.70

Look up log10 of mTOR: CC(N)c1ccc(-c2ccc3ncc4ccc(=O)n(-c5ccc(C(=O)N6CCOCC6)cc5)c4c3c2)cc1 (stereo not drawn) 2.23

Can you share its log10 of mTOR? I mean this compound: `Cc1cc(C(=O)NCCN2CCN(C)CC2)ccc1-n1c(=O)ccc2cnc3ccc(-c4ccc(Cl)cc4)cc3c21` 3.56

----------
- PROTOCOL_TEXT: Solubility at pH 7.4
- Format: physicochemical
# Sol @ pH 7.4 per record follows

Examples with answers:
- CN(C)CCNC(=O)c1ccc(-n2c(=O)ccc3cnc4ccc(-c5ccc(Cl)cc5)cc4c32)cc1 [Compound 90]: 13.6 ug/mL
- O=C(NCCN1CCCC1)c1ccc(-n2c(=O)ccc3cnc4ccc(-c5ccc(Cl)cc5)cc4c32)cc1 [Compound 220]: 9.4 ug/mL
- CN1Cc2ccc(-c3ccc4ncc5ccc(=O)n(-c6ccc(C(=O)N7CCOCC7)cc6)c5c4c3)cc2C1 [Compound 244]: >76 ug/mL
- Cc1ccc(C#N)cc1-n1c(=O)n(C)c2cnc3ccc(-c4ccc(Cl)cc4)cc3c21 [Compound 400]: <1.0 ug/mL

Entry under review: Cc1cc(C(=O)NC2CC2)ccc1-n1c(=O)ccc2cnc3ccc(-c4ccc(Cl)cc4)nc3c21 [Compound 247] . Reported Sol @ pH 7.4? <1 ug/mL

Which value of Sol @ pH 7.4 has been reported for Nc1ccc(-c2ccc3ncc4ccc(=O)n(-c5ccc(C(=O)N6CCOCC6)cc5)c4c3c2)cn1 [Compound 334] in the records? 30 ug/mL

----------
The entries below are paired with their reported Sol @ pH 7.4 (ug/mL).
- PROTOCOL_TEXT: Solubility at pH 7.4
- Assay type: physicochemical
Enter your answer as a number in ug/mL; do not include the unit.

- Nc1ccc(-c2ccc3ncc4ccc(=O)n(-c5ccc6c(c5)CCC(=O)N6)c4c3c2)cn1: 10

Given the entry `CS(=O)(=O)c1ccc(-n2c(=O)ccc3cnc4ccc(-c5ccc(CN6CCCC6)cc5)cc4c32)cc1` , report its measured Sol @ pH 7.4 (ug/mL). 61

# Sol @ pH 7.4 (ug/mL) lookup, item `CS(=O)(=O)c1ccc(-n2c(=O)ccc3cnc4ccc(-c5ccc(N)nc5)cc4c32)cc1Cl` 2.3

----------
- PROTOCOL_TEXT: Microsomal stability (rat)
- Assay type: in vitro ADME
- SETTINGS: rat microsomes
Quick list: Microsomal Stability (rat) T1/2 per entry.
// return numeric value only (unit: min, not printed)

* O=C(NCCN1CCOCC1)c1ccc(-n2c(=O)ccc3cnc4ccc(-c5ccc(F)cc5)cc4c32)cc1 | 2
* O=C(NCCN1CCOCC1)c1ccc(-n2c(=O)ccc3cnc4ccc(-c5ccc(Cl)cc5)cc4c32)cc1 | 6.3
* C[S+]([O-])c1ccc(-n2c(=O)ccc3cnc4ccc(-c5ccc(Cl)cc5)cc4c32)cc1 (stereo not drawn) | 12.8
* O=C(NC1CCCCCC1)c1ccc(-n2c(=O)ccc3cnc4ccc(-c5ccc(Cl)cc5)cc4c32)cc1 | 6.8
* COc1cc(C(=O)NCCN2CCCC2)ccc1-n1c(=O)ccc2cnc3ccc(-c4ccc(Cl)cc4)cc3c21 | 10.6

Data request, read-out Microsomal Stability (rat) T1/2, for `CN(CCNC(=O)c1ccc(-n2c(=O)ccc3cnc4ccc(-c5ccc(Cl)cc5)cc4c32)cc1)c1ccccc1` 1.5

// returns reported Microsomal Stability (rat) T1/2 for input `O=C(c1ccc(-n2c(=O)ccc3cnc4ccc(-c5ccc(Cl)cc5)cc4c32)cc1)N(CCO)CCO` 5.9

----------
# maps each entry to its Microsomal Stability (rat) T1/2
- PROTOCOL_TEXT: Microsomal stability (rat)
- Type: in vitro ADME
- SETTINGS: rat microsomes
The reply should contain only the number, in min.

* Cc1cc(C(=O)NCCN2CCCC2)ccc1-n1c(=O)ccc2cnc3ccc(-c4ccc(F)cc4)cc3c21 [Compound 296] | 7.1

Give the measured Microsomal Stability (rat) T1/2 of O=C(NC1COC1)c1ccc(-n2c(=O)ccc3cnc4ccc(-c5ccc(Cl)cc5)cc4c32)cc1 [Compound 231] . 18

Fill blank: measured Microsomal Stability (rat) T1/2 of the compound O=C(c1ccc(-n2c(=O)ccc3cnc4ccc(-c5ccc(Cl)cc5)cc4c32)cc1)N1C2CCC1CC(O)C2 (stereo not drawn) [Compound 139] is ____. 4.3

Given CC(C)NC(=O)c1ccc(-n2c(=O)ccc3cnc4ccc(-c5ccc(Cl)cc5)cc4c32)cc1 [Compound 213] , state its recorded Microsomal Stability (rat) T1/2. 18.9

Query: Microsomal Stability (rat) T1/2; subject: CCN(CC)CCNC(=O)c1ccc(-n2c(=O)ccc3cnc4ccc(-c5ccc(Cl)cc5)cc4c32)c(OC)c1 [Compound 249] 7.9

If you can, please state the reported Microsomal Stability (rat) T1/2 value of Cc1cc(C(=O)NCCN2CCC2)ccc1-n1c(=O)ccc2cnc3ccc(-c4ccc(Cl)cc4)cc3c21 [Compound 293] . 22.9

Bench note: what Microsomal Stability (rat) T1/2 did Cc1nc2ccc(-c3ccc(Cl)cc3)cc2c2c1ccc(=O)n2-c1ccc(C(=O)N2CCOCC2)cc1 [Compound 234] show? 1.4

----------
- PROTOCOL_TEXT: PAMPA permeability
- Format: in vitro ADME
- SETTINGS: PAMPA
Measured PAMPA Permeability (×10^6 cm/s) accompanies every entry in the list below.

Study these solved cases before continuing.
* O=C1NCc2cc(-n3c(=O)ccc4cnc5ccc(-c6ccc(F)cc6)cc5c43)ccc21 | 98.56 ×10^6 cm/s
* CN(C)Cc1ccc(-c2ccc3ncc4ccc(=O)n(-c5ccc6c(c5)NC(=O)C6)c4c3c2)cc1 | <1.6 ×10^6 cm/s
* CN(C)CCOc1ccc(-c2ccc3ncc4ccc(=O)n(-c5ccc(S(C)(=O)=O)cc5)c4c3c2)cc1 | 133.5 ×10^6 cm/s

Let us examine a further case.
Quick check: PAMPA Permeability (×10^6 cm/s) of `CN1C(=O)CCc2cc(-n3c(=O)ccc4cnc5ccc(-c6ccc(N)nc6)cc5c43)ccc21` ? 133.39 ×10^6 cm/s

----------
- PROTOCOL_TEXT: Solubility at pH 7.4
- Format: physicochemical
Documented Sol @ pH 7.4 (ug/mL) across a set of compounds
Quick reminder: number only, in ug/mL, skip the unit.

Recorded results for 4 compounds are shown here.
• CCN(CC)Cc1ccc(-c2ccc3ncc4ccc(=O)n(-c5ccc6c(c5)CNC6=O)c4c3c2)cc1 = 57.74
• O=C1Cc2ccc(-n3c(=O)ccc4cnc5ccc(-c6ccc(Cl)cc6)cc5c43)cc2N1 = 0
• NCc1cccc(-c2ccc3ncc4ccc(=O)n(-c5ccc6c(c5)CNC6=O)c4c3c2)c1 = 27.3
• COc1ccc(C#N)cc1-n1c(=O)ccc2cnc3ccc(-c4ccc(F)cc4)cc3c21 = 0

Consider now this further compound.
Please report the recorded Sol @ pH 7.4 (ug/mL) for `CN(C)Cc1ccc(-c2ccc3ncc4ccc(=O)n(-c5ccc(N6CCOCC6)c(C#N)c5)c4c3c2)cc1` . 7.03
